assay-info: Uptake experiment: monoPAP mixture by oral gavage, analytes in whole blood
Assay type: in vivo, Sprague-Dawley rats
condition-description: male, Sprague-Dawley, rat, in vivo, po; monoPAP gavage dose, about 50 mg/kg each; PFCA product in whole blood; read-out: Half-life (converted)
quantity: Half-life

{"columns": ["given-smiles", "endpoint-result"],
 "data": [
  ["O=C(O)C(F)(F)C(F)(F)C(F)(F)C(F)(F)C(F)(F)C(F)(F)C(F)(F)F", "240 h"]
]}

---

Catalogue of compounds with associated Tmax
assay-info: Uptake experiment: diPAP mixture by oral gavage, analytes in whole blood
Format: in vivo, Sprague-Dawley rats
condition-description: male, Sprague-Dawley, rat, in vivo, po, 50 mg/kg; diPAP gavage dose; whole blood; read-out: Tmax (converted)
Procedure: This research was conducted under an animal use protocol approved by the University of Toronto Animal Care Committee. All animals were treated humanely and with regard for alleviation of suffering. […] Analyte and matrix specific limits of detection (LODs) and limits of quantification (LOQs) are provided in Supplemental Material (doi:10.1289/ehp.1002409). […]
quantity: Tmax (h)

{"columns": ["given-smiles", "quantity", "endpoint-result"],
 "data": [
  ["O=C(O)C(F)(F)C(F)(F)C(F)(F)C(F)(F)C(F)(F)C(F)(F)C(F)(F)F", "Tmax", 96],
  ["O=C(O)C(F)(F)C(F)(F)C(F)(F)C(F)(F)C(F)(F)C(F)(F)F", "Tmax", 24]
]}

---

assay-info: Elimination experiment: monoPAP mixture by IV injection, analytes in whole blood
Format: in vivo, Sprague-Dawley rats
condition-description: male, Sprague-Dawley, rat, in vivo, 15 mg/kg; monoPAP IV dose; whole blood; read-out: Cmax
Protocol: This research was conducted under an animal use protocol approved by the University of Toronto Animal Care Committee. All animals were treated humanely and with regard for alleviation of suffering. […] Analyte and matrix specific limits of detection (LODs) and limits of quantification (LOQs) are provided in Supplemental Material (doi:10.1289/ehp.1002409). […]

{"columns": ["compound", "Cmax [ng/g]"],
 "data": [
  ["O=C(O)C(F)(F)C(F)(F)C(F)(F)C(F)(F)C(F)(F)C(F)(F)C(F)(F)F [PFOA, perfluorooctanoic acid]", 8.5],
  ["O=C(O)C(F)(F)C(F)(F)C(F)(F)C(F)(F)C(F)(F)C(F)(F)F [PFHpA, perfluoroheptanoic acid]", 2.3]
]}

---

assay-info: Elimination experiment: monoPAP mixture by IV injection, analytes in whole blood
Type: in vivo, Sprague-Dawley rats
condition-description: monoPAP IV dose; whole blood
Catalogue of compounds with associated Tmax

{"columns": ["compound", "Tmax [h]"],
 "data": [
  ["O=C(O)C(F)(F)C(F)(F)C(F)(F)C(F)(F)C(F)(F)F", 4],
  ["O=C(O)C(F)(F)C(F)(F)C(F)(F)C(F)(F)C(F)(F)C(F)(F)C(F)(F)C(F)(F)F [PFNA, perfluorononanoate]", 360],
  ["O=C(O)C(F)(F)C(F)(F)C(F)(F)C(F)(F)C(F)(F)C(F)(F)C(F)(F)C(F)(F)C(F)(F)F [PFDA, perfluorodecanoate]", 360],
  ["O=C(O)C(F)(F)C(F)(F)C(F)(F)C(F)(F)F", 6],
  ["O=C(O)C(F)(F)C(F)(F)C(F)(F)F", 6]
]}

// provenance: paper PMC3059997
